Test system: NCI-H196 complex spheroid growth, percent test/control
Assay Explanation: Anticancer human tumor NCI-H196 cell line growth inhibition [AhR];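 also: seven days of drug exposure starting three days after plating; 100% = DMSO vehicle control wells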
Assay Conditions: second compound 3.16 µM; first compound 0.03 µM; stronger effect = lower value
Measured viability, T/C, listed per entry.
Observation Type: viability, T/C (%)

Compound	Observation Type	Reported
CCN(c1cc(-c2ccc(CN3CCOCC3)cc2)cc(C(=O)NCc2c(C)cc(C)[nH]c2=O)c1C)C1CCOCC1 + Cc1ccccc1N=Nc1ccc(NC(=O)c2ccnn2C)c(C)c1	viability, T/C	103
O=C(C=Cn1cnc(-c2cc(C(F)(F)F)cc(C(F)(F)F)c2)n1)NNc1cnccn1 + CC(CO)NC(=O)c1cc(-c2ccc(Cl)cc2)nn(-c2cnn(C)c2)c1=O	viability, T/C	59.1
O=C(C=Cn1cnc(-c2cc(C(F)(F)F)cc(C(F)(F)F)c2)n1)NNc1cnccn1 + Cc1cncc(-c2nc(NCCc3c[nH]c4ccccc34)c3ncn(C(C)C)c3n2)c1	viability, T/C	59.4

---

Test system: NCI-H196 complex spheroid growth, percent test/control
Assay Explanation: Anticancer human tumor NCI-H196 cell line growth inhibition [AhR];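 also: seven days of drug exposure starting three days after plating; 100% = DMSO vehicle control wells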
Assay Conditions: second compound 10 µM; first compound 1 µM; stronger effect = lower value
Returns: string. Value is rule met if measured viability, T/C is below 60%, and rule not met if it is greater than or equal to it.

Compound	Class Label
COc1cccc2c1C(=O)c1c(O)c3c(c(O)c1C2=O)CC(O)(C(=O)CO)CC3OC1CC(N)C(O)C(C)O1 (stereo unspecified) + Cc1ccccc1N=Nc1ccc(NC(=O)c2ccnn2C)c(C)c1	rule met
CC1COCCN1c1cc(-c2ccnn2C)c2ccnc(-c3ccn[nH]3)c2n1 (stereo unspecified) + Cc1cncc(-c2nc(NCCc3c[nH]c4ccccc34)c3ncn(C(C)C)c3n2)c1	rule not met
Nc1ccn(C2OC(CO)C(O)C2(F)F)c(=O)n1 (stereo unspecified) + Cc1cncc(-c2nc(NCCc3c[nH]c4ccccc34)c3ncn(C(C)C)c3n2)c1	rule met
Nc1ccccc1NC(=O)c1ccc(CNC(=O)OCc2cccnc2)cc1 + Cc1ccccc1N=Nc1ccc(NC(=O)c2ccnn2C)c(C)c1	rule met
Nc1ncn(C2CC(O)C(CO)O2)c(=O)n1 (stereo unspecified) + CC(CO)NC(=O)c1cc(-c2ccc(Cl)cc2)nn(-c2cnn(C)c2)c1=O	rule not met
COc1cc(Nc2ncc3c(n2)-c2ccc(Cl)cc2C(c2c(F)cccc2OC)=NC3)ccc1C(=O)O + Cc1cncc(-c2nc(NCCc3c[nH]c4ccccc34)c3ncn(C(C)C)c3n2)c1	rule not met

---

viability, T/C overview
Test system: NCI-H196 complex spheroid growth, percent test/control
Assay Explanation: Anticancer human tumor NCI-H196 cell line growth inhibition [AhR];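 also: seven days of drug exposure starting three days after plating; 100% = DMSO vehicle control wells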
Assay Conditions: second compound 1 µM; first compound 0.1 µM; stronger effect = lower value

Compound	viability, T/C (%)
COc1cc(Nc2ncc3c(n2)-c2ccc(Cl)cc2C(c2c(F)cccc2OC)=NC3)ccc1C(=O)O + Cc1cncc(-c2nc(NCCc3c[nH]c4ccccc34)c3ncn(C(C)C)c3n2)c1	102
COc1cc(Nc2ncc3c(n2)-c2ccc(Cl)cc2C(c2c(F)cccc2OC)=NC3)ccc1C(=O)O + CC(CO)NC(=O)c1cc(-c2ccc(Cl)cc2)nn(-c2cnn(C)c2)c1=O	98.9
COc1cccc2c1C(=O)c1c(O)c3c(c(O)c1C2=O)CC(O)(C(=O)CO)CC3OC1CC(N)C(O)C(C)O1 (stereo unspecified) + Cc1cncc(-c2nc(NCCc3c[nH]c4ccccc34)c3ncn(C(C)C)c3n2)c1	106
COc1cccc2c1C(=O)c1c(O)c3c(c(O)c1C2=O)CC(O)(C(=O)CO)CC3OC1CC(N)C(O)C(C)O1 (stereo unspecified) + CC(CO)NC(=O)c1cc(-c2ccc(Cl)cc2)nn(-c2cnn(C)c2)c1=O	116
CC(C)c1c(-c2ccccc2)nc2c(C#N)c[nH]n2c1=O + Cc1cncc(-c2nc(NCCc3c[nH]c4ccccc34)c3ncn(C(C)C)c3n2)c1	112
Nc1ccccc1NC(=O)c1ccc(CNC(=O)OCc2cccnc2)cc1 + Cc1ccccc1N=Nc1ccc(NC(=O)c2ccnn2C)c(C)c1	89.8
